test: Gradient HPLC Log P determination from retention time (new method); settings: New Method Calc. Log P Y = 1.009X + 0.029, calculated from average gradient HPLC retention time X (ODS-AQ 4.6×50 mm, methanol/water), linear fit
chromatographic logP overview

Check out these entries, answers already filled in.
compound=CC(=O)c1ccccc1 experimental_result=1.94
compound=O=c1cc[nH]c(=O)[nH]1 experimental_result=0.32
compound=OCc1ccccc1 experimental_result=0.98
compound="NC(=O)c1ccccc1 [standard 2, benzamide]" experimental_result=0.56
compound="CNC(=O)c1ccccc1 [standard 3, N-methyl benzamide]" experimental_result=0.68

Req: Return reported chromatographic logP; argument: c1ccc(Sc2ccccc2)cc1 [standard 13, phenyl sulfide]
Resp: 4.33
